assayTarget: T1, UNK ZnF1-3 (human, UniProt Q9C0B0 31-174)
T1 sequence: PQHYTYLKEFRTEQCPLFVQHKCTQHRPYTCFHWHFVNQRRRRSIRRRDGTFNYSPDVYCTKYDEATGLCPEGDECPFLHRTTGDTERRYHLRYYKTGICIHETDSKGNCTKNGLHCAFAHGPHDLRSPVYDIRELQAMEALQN
method: nsRBNS (natural sequence RNA bind-n-seq); RBNS binding buffer (assumed for nsRBNS): 25 mM Tris pH 7.5, 150 mM KCl, 3 mM MgCl2, 0.01% Triton X-100, 500 ug/ml BSA, 20 U/ml SUPERase-In, 4 C; UNK is unkempt and MSI1 is Musashi-1; names of the RNAs are library labels; protein concentration not given here; high values mean tight binding
Whole data set: some 24,000 sequences, median “enrichment r” near 0.99, cut for the highest 2% near 3.7. The sample as a whole holds a higher share of the highest values than the screen did.
measurementKind: binding signal (enrichment R)
Answers are plain numbers, in enrichment R.

Input 11472005_11472125_940_CDS_ENSG00000105520_ENST00000251473|human|control|control (ssRNA) RNA: GGGAGUUCUACAGUCCGACGAUCCUUGCAGGGGAAGGCGCGGCGCGCGGCGGCCACGAGGCUGGGACUGCCAGCGCAGGCACCCUGGUCAGUGACAAAGCGGUCGGGACCUGGCCGAUCCGGAGAAGGUGGCAGGCAGCCCAGCAACAGAGGAUUGAGCAUCA . Output binding signal: 0.958

Input chr17:26793470:26793471:+_ENSMUSG00000001576_ENSMUST00000167662|mus_hu|FALSE|FALSE (ssRNA) RNA: GGGAGUUCUACAGUCCGACGAUCCGGAGCUUAGAGCCAAAAAUUACAAAUGGCAGAGACUUGAGCUAUCCAUAAGAUAAUUUUAAAAAUCCUUCCACUGGACACUCCCCUUCAUUACAAAAGUAUGCAAACAAUCUUGCUAUACAACAGAGGAUUGAGCAUCA . Output binding signal: 3.67

# next binder below
Input chr14:35182089:35182090:-_ENSG00000165410_ENST00000422678|hu_mus|motif|central (ssRNA) RNA: GGGAGUUCUACAGUCCGACGAUCCUUAAGAUCAAAUGGCACUUGGCUAUUAUUUUAUAGUGGCUUUCCUUCAAGGGAAACGGCAACACUGCCCCCCAGUUUCUCUCCCAGCGUCGAGCGGUCCUUAAUAUCGUCCAAGCCAUUCAACAGAGGAUUGAGCAUCA . Output binding signal: 1.04
